Molecular target: immobilized GPIIb/IIIa (Homo sapiens, UniProt P05106+P08514)
Construct: GPIIb/IIIa was either obtained from commercial sources (Enzyme Research Laboratories) or purified as outlined below; Outdated platelet concentrates; tissue Enzyme Research Laboratories (alternative source; no catalogue number given); host or cells: outdated platelet concentrates (Interstate Blood Bank)
Sequence (P08514 32-887 limits assumed): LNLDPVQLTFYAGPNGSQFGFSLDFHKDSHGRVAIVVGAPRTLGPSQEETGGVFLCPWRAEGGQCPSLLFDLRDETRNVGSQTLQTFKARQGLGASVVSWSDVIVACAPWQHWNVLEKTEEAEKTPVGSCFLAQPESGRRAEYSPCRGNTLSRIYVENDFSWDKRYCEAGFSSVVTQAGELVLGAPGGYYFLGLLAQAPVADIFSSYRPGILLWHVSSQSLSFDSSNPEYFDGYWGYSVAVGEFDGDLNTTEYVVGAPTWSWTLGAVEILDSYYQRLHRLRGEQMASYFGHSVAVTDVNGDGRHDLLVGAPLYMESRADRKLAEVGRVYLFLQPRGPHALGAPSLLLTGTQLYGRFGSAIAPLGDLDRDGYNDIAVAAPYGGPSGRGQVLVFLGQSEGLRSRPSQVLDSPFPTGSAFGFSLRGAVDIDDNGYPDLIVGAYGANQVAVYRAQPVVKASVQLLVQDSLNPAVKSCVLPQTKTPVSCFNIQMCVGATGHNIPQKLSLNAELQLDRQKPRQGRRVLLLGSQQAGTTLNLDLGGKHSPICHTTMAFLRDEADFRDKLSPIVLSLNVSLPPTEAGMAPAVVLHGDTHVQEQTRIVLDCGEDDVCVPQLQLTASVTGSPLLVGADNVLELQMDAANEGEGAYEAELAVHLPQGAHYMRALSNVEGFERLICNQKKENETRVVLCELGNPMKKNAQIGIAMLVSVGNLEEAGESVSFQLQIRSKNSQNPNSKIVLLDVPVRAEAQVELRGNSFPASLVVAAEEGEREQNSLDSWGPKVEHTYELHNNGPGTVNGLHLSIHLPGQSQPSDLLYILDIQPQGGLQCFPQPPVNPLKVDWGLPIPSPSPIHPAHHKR
Sequence (P08514 891-1039 limits assumed): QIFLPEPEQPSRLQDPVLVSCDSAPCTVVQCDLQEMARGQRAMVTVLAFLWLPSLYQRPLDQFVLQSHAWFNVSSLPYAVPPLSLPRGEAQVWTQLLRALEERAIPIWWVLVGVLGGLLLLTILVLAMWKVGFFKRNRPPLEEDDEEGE
Sequence (P05106 27-788): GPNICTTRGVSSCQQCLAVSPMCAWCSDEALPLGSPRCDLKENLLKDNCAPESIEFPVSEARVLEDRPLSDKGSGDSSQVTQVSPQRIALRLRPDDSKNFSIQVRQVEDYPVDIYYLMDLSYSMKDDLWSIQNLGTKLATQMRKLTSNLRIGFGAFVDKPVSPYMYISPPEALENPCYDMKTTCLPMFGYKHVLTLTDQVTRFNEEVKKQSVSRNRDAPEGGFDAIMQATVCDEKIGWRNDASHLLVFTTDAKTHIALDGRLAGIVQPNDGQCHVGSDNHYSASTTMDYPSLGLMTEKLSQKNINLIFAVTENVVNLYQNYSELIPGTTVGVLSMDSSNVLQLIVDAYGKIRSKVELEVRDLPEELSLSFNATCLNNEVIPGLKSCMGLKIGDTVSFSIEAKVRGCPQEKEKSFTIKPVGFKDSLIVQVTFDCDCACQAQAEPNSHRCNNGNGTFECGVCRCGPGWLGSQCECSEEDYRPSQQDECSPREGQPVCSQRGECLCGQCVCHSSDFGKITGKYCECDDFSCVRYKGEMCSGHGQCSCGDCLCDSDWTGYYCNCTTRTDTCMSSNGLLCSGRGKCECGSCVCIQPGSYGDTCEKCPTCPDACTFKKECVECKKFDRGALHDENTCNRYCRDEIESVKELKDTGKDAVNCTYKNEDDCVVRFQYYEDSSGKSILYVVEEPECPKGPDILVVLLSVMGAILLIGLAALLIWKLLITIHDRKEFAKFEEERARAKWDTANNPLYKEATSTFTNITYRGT
Experiment: GPIIb/IIIa DDAB ELISA: binding of plasma drug-dependent antibodies in presence versus absence of GPIIb/IIIa antagonist
Details: chimpanzee plasma, in words
Method: In the ELISA Type-2 procedure, Costar Enzyme Immunoassay/Radioimmunoassay [EIA/RIA] […] The change of absorbance was determined kinetically for 15 minutes at […] using a standard ELISA reader. Results are expressed as either delta OD [change in optical density] […]
measured_attribute: reactivity of the thrombocytopenic chimpanzee plasma in the DDAB ELISA

> print(dat)
                                 smiles.str        reading
1  Cc1noc(C)c1S(=O)(=O)N[C@@H](CNC(=O)C[C@H]1CC(c2ccc(C(=N)N)cc2)=NO1)C(=O)O  no reactivity
2  Cc1ccc(S(=O)(=O)N[C@@H](CNC(=O)c2cc3n(n2)CCCN(CCC2CCNCC2)C3=O)C(=O)O)cc1           less
3  CCCCOC(=O)N[C@@H](CNC(=O)C[C@H]1CC(c2ccc(C(=N)N)cc2)=NO1)C(=O)O  no reactivity
